# target or test system: human PD-L1 (Homo sapiens (Human), UniProt Q9NZQ7)
# Sequence (Q9NZQ7 19-239): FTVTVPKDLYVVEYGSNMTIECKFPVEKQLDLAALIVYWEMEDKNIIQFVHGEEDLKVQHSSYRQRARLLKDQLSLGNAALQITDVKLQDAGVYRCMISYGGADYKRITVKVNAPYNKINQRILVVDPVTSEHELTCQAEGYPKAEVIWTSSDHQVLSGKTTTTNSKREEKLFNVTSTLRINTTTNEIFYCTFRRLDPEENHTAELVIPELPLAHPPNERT
# assay remarks: Enzyme-Linked Immunosorbent Assay (ELISA), PD-1/PD-L1 binding
# measurement setup: human PD-1/PD-L1 ELISA, plates coated with human PD-L1
This listing pairs molecules with measured IC50.

In the examples that follow, each entry is paired with its recorded IC50.
input smiles	IC50
COc1cc(-c2cccc(-c3cccc(Nc4nccc5c4C(=O)N(C)CC5)c3C)c2C)cc(F)c1CNC[C@@H](C)O	10 to 1000 nM
COc1cc(-c2cccc(-c3cccc(Nc4nccc5nccnc45)c3C)c2C)cc(F)c1CN[C@H]1CNC(=O)C1	< 10 nM
COc1cc(-c2cccc(-c3cccc(NC(=O)c4c[nH]c(=O)n(C)c4=O)c3C)c2C)cc(F)c1CNCc1noc(=O)[nH]1	10 to 1000 nM
COc1cc(-c2cccc(-c3cccc(NC(=O)c4cn(C)c(=O)n(C)c4=O)c3C)c2C)cc(F)c1CNCc1cn(C)c(=O)n(C)c1=O	< 10 nM

Lab note: next molecule to report on.
Exam item: Under human PD-L1 (Homo sapiens (Human), UniProt Q9NZQ7): IC50 value of COc1cc(-c2cccc(-c3cccc(NC(=O)c4cn(C)c(=O)n(C)c4=O)c3C)c2C)cc(F)c1CN[C@H]1CNC(=O)C1 ?
Marked response: < 10 nM

---

# target or test system: human PD-L1 (Homo sapiens (Human), UniProt Q9NZQ7)
# assay remarks: Enzyme-Linked Immunosorbent Assay (ELISA), PD-1/PD-L1 binding
# measurement setup: human PD-1/PD-L1 ELISA, plates coated with human PD-L1
pIC50: −log10 of the molar value.
This listing pairs molecules with measured pIC50.

In the examples that follow, each entry is paired with its recorded pIC50.
molecule	value measured
COc1cc(-c2cccc(-c3cccc(Nc4nccc5nccnc45)c3C)c2F)cc(F)c1CNC[C@@H]1CCC(=O)N1 [Example 1.028]	6.00 to 8.00
COc1cc(-c2cccc(-c3cccc(NC(=O)c4cncn(C)c4=O)c3C)c2C)cc(F)c1CNCC1CCCNC1=O (centres unmarked) [Example 1.098]	> 8.00
COc1cc(-c2cccc(-c3cccc(NC(=O)c4c[nH]c(=O)n(C)c4=O)c3C)c2C)cc(F)c1CNC1CCOCC1 [Example 1.053]	> 8.00
COc1cc(-c2cccc(-c3cccc(Nc4nccc5nccnc45)c3C)c2Cl)cc(F)c1CN[C@@H]1CNC(=O)C1 [Example 1.024]	> 8.00
COc1cc(-c2cccc(-c3cccc(NC(=O)c4cn(C)c(=O)n(C)c4=O)c3Cl)c2Cl)cc(F)c1CNC[C@@H]1CCC(=O)N1 [Example 1.031]	> 8.00

Exam item: Tell me the measured pIC50 of COc1cc(-c2cccc(-c3cccc(NC(=O)c4nn(C)c(=O)n(C)c4=O)c3C)c2C)cc(F)c1CNCC(N)=O [Example 1.064] , please.
Marked response: > 8.00

Exam item: For COc1cc(-c2cccc(-c3cccc(NC(=O)c4c[nH]c(=O)n(C)c4=O)c3C)c2C)cc(F)c1CN[C@@H]1COC[C@H]1O [Example 1.078] then?
Marked response: > 8.00

Exam item: For COc1cc(-c2cccc(-c3cccc(NC(=O)c4cncn(C)c4=O)c3C)c2C)cc(F)c1CN[C@H]1CCC[C@H]1O [Example 1.161] then?
Marked response: > 8.00

Every entry's value here was drawn from patent US11266643B2.
